B1: library; numbered along this chain (parent)
chain: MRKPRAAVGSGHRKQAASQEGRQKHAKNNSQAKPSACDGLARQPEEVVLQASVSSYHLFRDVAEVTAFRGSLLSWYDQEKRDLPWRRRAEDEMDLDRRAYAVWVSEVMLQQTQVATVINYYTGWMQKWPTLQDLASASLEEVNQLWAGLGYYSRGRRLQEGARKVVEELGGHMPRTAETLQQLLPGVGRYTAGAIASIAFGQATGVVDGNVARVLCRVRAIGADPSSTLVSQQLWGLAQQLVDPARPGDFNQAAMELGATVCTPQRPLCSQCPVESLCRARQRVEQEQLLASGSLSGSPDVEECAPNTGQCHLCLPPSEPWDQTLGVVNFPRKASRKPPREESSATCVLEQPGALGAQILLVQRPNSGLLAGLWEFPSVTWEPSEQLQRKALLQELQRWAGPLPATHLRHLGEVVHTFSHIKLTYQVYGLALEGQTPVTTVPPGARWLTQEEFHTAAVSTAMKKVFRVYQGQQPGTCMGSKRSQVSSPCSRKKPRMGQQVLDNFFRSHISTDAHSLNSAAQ

Variants of: B1
run-description: 8OG:A repair function score (normalized; synonymous = 0, nonsense = -1) (normalized log-likelihood score); higher = more repair activity (WT-like);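 also: cells sorted at 72 h after reporter transfection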
study-conditions: with 8OG:A DNA repair reporter (GFP) in HEK-293 MUTYH KO cells
Think of -0.4 as a floor: if 8OG:A repair function score stands on it or above, it is fulfilled; beneath it, not fulfilled.

Answered cases to consult:
Prompt line: Quick check, 8OG:A repair function score >= -0.4? `A212W`
Response line: not fulfilled

Prompt line: Do the same for `F68S` please
Response line: not fulfilled

Prompt line: Then `A162M` ?
Response line: not fulfilled

Prompt line: Subsequent entry: `Q426E`
Response line: fulfilled

Prompt line: Another variant to check: `V414C`
Response line: fulfilled

---
Prompt line: # bool: 8OG:A repair function score of `L295Q` >= -0.4
Response line: fulfilled

Prompt line: `C311T` ?
Response line: not fulfilled

Prompt line: Entry to check: `A203W`
Response line: fulfilled

Prompt line: And `H514Y` ?
Response line: fulfilled

Prompt line: What do we get for `P338Y` ?
Response line: fulfilled

The measurements presented in this section are drawn from the supplement of paper PMC11908140.
